Could you please report measured Kd for the items listed next?
biological target: T1, rhesus CD117 ectodomain (rhesus, UniProt F6V858 26-524); assay: BLI (Octet Red96), IgG on anti-human Fc sensors, rhesus CD117 ectodomain at 33.3 and 11 nM, 1:1 fit
T1 construct: extracellular domain
Give bare numbers, in nM.

Example entries begin here.
- BINDER: "Antibody 54 (antibody, human IgG1, kappa, V domains shown, also called Ab54; HC-54/LC-54) VH: QVQLVQSGAEVKKPGSSVKVSCKASGGTFSSYAISWVRQAPGQGLEWMGGIIPIFGTANYAQKFQGRVTITADESTSTAYMELSSLRSEDTAVYYCARGGLDTDEFDLWGRGTLVTVSS VL: DIQMTQSPSSLSASVGDRVTITCRASQSINSYLNWYQQKPGKAPKLLIYAASSLQSGVPSRFSGSGSGTDFTLTISSLQPEDFATYYCQQGVSDITFGGGTKVEIKR"
  UNIT ABBREV: "nM"
  Kd: 2.6
- BINDER: "Antibody 61 (antibody, human IgG1, kappa, V domains shown, also called Ab61; HC-61/LC-61) VH: EVQLLESGGGLVQPGGSLRLSCAASGFTFSSYVMIWVRQAPGKGLEWVSSISGDSVTTYYADSVKGRFTISRDNSKNTLYLQMNSLRAEDTAVYYCAKGPPTYHTNYYYMDVWGKGTTVTVSS VL: DIQMTQSPSSVSASVGDRVTITCRASQGISSWLAWYQQKPGKAPKLLIYAASSLQSGVPSRFSGSGSGTDFTLTISSLQPEDFATYYCQQTNSFPYTFGGGTKVEIKR"
  UNIT ABBREV: "nM"
  Kd: 20.5
- BINDER: "Antibody 55 (antibody, human IgG1, kappa, V domains shown, also called Ab55; HC-55/LC-55) VH: QVQLVQSGAEVKKPGSSVKVSCKASGGTFRIYAISWVRQAPGQGLEWMGGIIPDFGVANYAQKFQGRVTITADESTSTAYMELSSLRSEDTAVYYCARGGLDTDEFDLWGRGTLVTVSS VL: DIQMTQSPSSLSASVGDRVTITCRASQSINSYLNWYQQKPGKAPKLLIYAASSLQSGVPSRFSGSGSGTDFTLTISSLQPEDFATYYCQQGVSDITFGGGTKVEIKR"
  UNIT ABBREV: "nM"
  Kd: 0.284
- BINDER: "Antibody 57 (antibody, human IgG1, kappa, V domains shown, also called Ab57; HC-57/LC-57) VH: QVQLVQSGAEVKKPGSSVKVSCKASGGTFSLYAISWVRQAPGQGLEWMGGIIPHFGLANYAQKFQGRVTITADESTSTAYMELSSLRSEDTAVYYCARGGLDTDEFDLWGRGTLVTVSS VL: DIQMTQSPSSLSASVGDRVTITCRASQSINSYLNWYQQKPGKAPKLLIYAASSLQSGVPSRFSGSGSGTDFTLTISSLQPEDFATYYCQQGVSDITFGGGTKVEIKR"
  UNIT ABBREV: "nM"
  Kd: 0.288

Then there is this binder:
Per the records, this binder ( Antibody 56 (antibody, human IgG1, kappa, V domains shown, also called Ab56; HC-56/LC-56) VH: QVQLVQSGAEVKKPGSSVKVSCKASGGTFSLYAISWVRQAPGQGLEWMGGIIPAFGTANYAQKFQGRVTITADESTSTAYMELSSLRSEDTAVYYCARGGLDTDEFDLWGRGTLVTVSS VL: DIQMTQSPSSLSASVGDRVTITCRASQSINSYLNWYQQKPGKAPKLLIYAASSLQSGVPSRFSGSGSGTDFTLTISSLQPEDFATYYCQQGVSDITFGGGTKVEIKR ) has Kd equal to 0.28
